Data provenance: PubChem BioAssay (NCI)

- Test system: MALME-3M melanoma
- assay-procedure: NCI tumour cell line growth inhibition, 48 h
Could you label it T if measured TGI is 30 µM or higher, and F otherwise?

Study these solved cases before continuing.
O=C1C=CC(=O)C2=C1[C@@H](O)C1CC=CC3C(=O)O[C@@H]2C31 (stereo not given in full)    T
COc1cccc(N2C(=O)C3c4[nH]c5ccccc5c4C4CCCC4C3C2=O)c1 (stereo not given)    F
O=C1C(c2ccccc2)=C(O)c2cccc3cccc1c23    T
CCOc1cc2c(C(=O)CC)c(O)ccc2o1    T
COc1cc([C@@H]2c3cc4c(cc3[C@@H](c3c(O)cc(O)c5c3O[C@H](c3ccc(O)c(O)c3)[C@@H](O)C5)[C@H]3COC(=O)[C@H]23)OCO4)cc(OC)c1OC    T
CC(C)(C)C(=O)OCC1C(=O)OCC1C(=O)N1Cc2cc3ccccc3nc2C1 (stereo not given)    F

Does the compound `COc1ccc(/C=C/c2cc(OC)c(OC)c(OC)c2)cc1` have recorded TGI that is 30 µM or more?
T

// inclusive: TGI at least 30 µM? input: COC(=O)C1(Cc2ccc3c(c2)CCC3)Cc2ccccc2C1O (stereo not given)
T

Check this compound for TGI at or above 30 µM: `O=c1cc(N2CCCC2)[nH]c(=O)n1Cc1ccccc1`
T

Could you tell me if the measured TGI of COc1ccc2c3c1OC1C(=O)C=CC4(CC2)N(C)CCC314 (stereo not given) reaches 30 µM or more?
T

====

- Tested on: RPMI-8226 leukemia
- assay-procedure: NCI tumour cell line growth inhibition, 48 h
# key: entry, value: TGI

Worked set:
C[C@H](NC(=O)C(Cc1ccccc1)(Cc1ccc(O)cn1)NC(=O)c1ccccc1)c1ccccc1 (stereo partly specified)    > 100 µM
Cc1cc([N+](=O)[O-])c(NS(=O)(=O)c2cccc(C(=O)O)c2)cc1-c1cccnc1    > 100 µM
C/C(=N/NC(=S)N1CCCCC1)c1ccccc1O    > 31.6 µM
Cc1ccc([S@](=O)c2occc2C=O)cc1    8.04 µM
N/N=C(/C(=O)Nc1cccc(Cl)c1)C(C(=O)c1ccc(O)cc1O)C1OC(=O)c2ccccc21 (stereo unspecified)    > 100 µM
O=c1cc(N2CCCC2)[nH]c(=O)n1Cc1ccccc1    > 100 µM
CC1CCCC2(CC[N+](C)(CCC[N+](C)(C)C)CC2)C1 (stereo unspecified)    > 100 µM
CN1CCN(C(=O)C(C)(C)c2ccc(C(=O)Nc3cn4cc(-c5ccncc5)ccc4n3)cc2)CC1    1.35 µM
CCCCOC(=O)C(NC(C(=O)OCCCC)c1cc(C(C)(C)C)c(O)c(C(C)(C)C)c1)c1cc(C(C)(C)C)c(O)c(C(C)(C)C)c1 (stereo unspecified)    > 100 µM
COC(C(=O)NN)c1ccccc1 (stereo unspecified)    > 100 µM

Form: Entry = `O=C(N/N=C/C=C/c1ccc([N+](=O)[O-])o1)c1cc2ccccc2cc1O` | System = RPMI-8226 leukemia | TGI = ____
6.83 µM

# returns recorded TGI (system: RPMI-8226 leukemia) for Cc1cn(C2CC3C(COCN3O)O2)c(=O)[nH]c1=O (stereo unspecified)
> 100 µM

What TGI appears in the records for this molecule with RPMI-8226 leukemia? CC1=C(C(=O)Nc2ccc3n[nH]c(C)c3c2)C(c2ccc(C(F)(F)F)cc2)CC(=O)N1 (stereo unspecified)
> 25 µM

API: value(readout=TGI, system=RPMI-8226 leukemia) for record O=C1CCCCCCCCCCC1CN1CCCC1 (stereo unspecified)
> 100 µM

Identify the measured TGI of c1cncc(C2N3CCCCC3[C@@H]3c4[nH]c5ccccc5c4CCN23)c1 (stereo partly specified) for RPMI-8226 leukemia.
> 100 µM

Reported TGI for RPMI-8226 leukemia, given `CSC1=C(N)C(=O)c2[nH]cc(CO)c2C1=N` ?
1.2 µM

What value of TGI on RPMI-8226 leukemia does `NS(=O)(=O)c1ccc(/C=C/c2ccc(F)cc2)cc1` have?
> 100 µM

Checklist item: TGI tested on RPMI-8226 leukemia, entry CC(NC(=O)C(NC(=O)CNC(=O)OC(C)(C)C)C(C)C)C(=O)Oc1c(Cl)c(Cl)c(Cl)c(Cl)c1Cl (stereo unspecified) , value?
> 100 µM

====

- Test system: TK-10 renal
- assay-procedure: NCI tumour cell line growth inhibition, 48 h
compounds and their reported TGI

Some entries whose results are on file:
Cc1ccccc1C1OC(=O)c2ccc3ccccc3c21 (stereo unspecified)    > 31.6 µM
CCOc1cc2c(C(=O)CC)c(O)ccc2o1    > 100 µM
N/N=C(/C(=O)Nc1cccc(Cl)c1)C(C(=O)c1ccc(O)cc1O)C1OC(=O)c2ccccc21 (stereo unspecified)    > 100 µM

Any idea what its TGI is? The compound is COC(=O)C1CCC(=S)N1C(=O)c1ccccc1 (stereo unspecified)
> 100 µM

Which TGI value belongs to O=c1cnn(C2OC(CO)C(O)C2O)c(=S)[nH]1 (stereo unspecified) ?
> 100 µM

Given `Cc1cccc(Nc2nn3c(=O)c4c5c(sc4nc3s2)CCCC5)c1` , state its recorded TGI.
> 100 µM

Give the measured TGI of NC(=O)N/N=C1/CCC(O)CC1CC(=O)O (stereo unspecified) .
> 100 µM

Please give the measured TGI for this compound: `Cc1c(Cl)cccc1C(=O)Nc1nc2c(s1)CN(C(=O)c1ccc(C(F)(F)F)cc1)CC2`
> 50 µM

# query: TGI of entry `COc1cc2c(cc1OC)[C@H](C)N1CCc3cc(OC)c(OC)cc3[C@@H]1C2`
> 100 µM

# get_value(readout='TGI', item= `O=C(Nc1ccc(Br)cc1F)c1cc(I)ccc1O` )
9.43 µM

# input compound: `O=C(Nc1cccc(-n2cc(-c3ccncc3)c(-c3ccc(Cl)c(O)c3)n2)c1)Nc1cc(C(F)(F)F)cc(C(F)(F)F)c1` ; wanted: its TGI
2.75 µM

Quick one: TGI of `O=C1c2cc3c(cc2[C@@H]2[C@H]1c1ccc([N+](=O)[O-])cc1C(=O)N2CCCBr)OCO3` ?
4.04 µM

Which TGI reading was recorded for the compound O=S(=O)(c1ccc(NC2=NC(c3ccc(O)cc3)(c3ccccc3O)c3ccccc32)cc1)c1ccc(NC2=NC(c3ccc(O)cc3)(c3ccccc3O)c3ccccc32)cc1 (stereo unspecified) ?
> 100 µM

Fill blank: measured TGI of the compound `CN1CCN(C(=O)C(C)(C)c2ccc(C(=O)Nc3cn4cc(-c5ccncc5)ccc4n3)cc2)CC1` is ____.
> 100 µM

What value of TGI has been reported for the following compound? `Cc1ccc(S(=O)(=O)c2c(COC(=O)c3cccc(C)c3)c(-c3ccccc3)nn2C)cc1`
> 100 µM

Param item = `C[n+]1cccc2c(=O)c3ccccc3oc21` ; retrieve measured TGI.
> 100 µM

// query TGI value for entry COC(C(=O)NN)c1ccccc1 (stereo unspecified)
> 100 µM

So what does the record say about TGI for CCCC(=O)NC(Nc1ccc(S(=O)(=O)Nc2cc(C)on2)cc1)(C(=O)OCC)C(F)(F)F (stereo unspecified) ?
> 100 µM

Give its TGI value. Item: Cc1ccc2c(c1)-c1c3c(nn1-c1ccccc1)-c1ccccc1SC3O2 (stereo unspecified)
> 100 µM

Look up TGI: `C=Cc1cncc(C#N)c1CCc1c(C#N)cncc1C=C`
> 100 µM

Tell me the measured TGI of `O=C1C[C@@H](C(=O)OCc2ccccc2)NC(=O)C[C@@H](C(=O)OCc2ccccc2)NC(=O)C[C@@H](C(=O)OCc2ccccc2)N1` , please.
73.6 µM

====

- System: HCT-116 colon
- assay-procedure: NCI tumour cell line growth inhibition, 48 h
Below is a list of entries, each paired with its recorded TGI value.

CC(=O)N1CC(C)(C)c2c(C)c(O)c(C)c(C)c21    > 100 µM

Fill blank: measured TGI of the molecule `CC(=O)Nc1ccc(S(=O)(=O)N/N=C/CN2C(=O)c3ccccc3C2=O)cc1` is ____.
> 100 µM

Would you mind telling me what TGI value was observed for `COc1ccc2c(c1)c(CC(=O)[Se]C)c(C)n2C(=O)c1ccc(Cl)cc1` ?
> 0.543 µM

Find the recorded TGI belonging to CCOC(=O)CCC(NC(=O)OCc1ccccc1)C(=O)NC(CCC(=O)OCC)C(=O)NC(CCC(=O)OCC)C(=O)NC(CCC(=O)OCC)C(=O)NC(CCC(=O)OCC)C(=O)NC(CCC(=O)OCC)C(=O)NC(CCC(=O)OCC)C(=O)OCC (centres undefined) and report it.
> 100 µM

I have this molecule here, Cc1cc2c(cc1Cl)SC1=NN(C)C(C)N1S2(=O)=O (centres undefined) , and I need its recorded TGI.
> 100 µM
